Just for reference, the supplement of paper PMC12669032 is where these values come from.

test system: Clostridium difficile; assay: growth AUC relative to DMSO control (median of replicates) (fraction); higher = more growth (less inhibition), active = hit call of the paper; conditions: 20 µM; 24 h
Property: growth AUC

Sample answers from the record:
CC1(C)[C@H](C=C(Cl)Cl)[C@H]1C(=O)OCc1c(F)c(F)cc(F)c1F; 1.08 (inactive)
CN1CSC(=S)N(C)C1; 0.976 (inactive)
CN(C)C(=S)SSC(=S)N(C)C; 0.945 (inactive)
C[C@@H](Oc1ccc(Oc2ncc(C(F)(F)F)cc2Cl)cc1)C(=O)O; 0.99 (inactive)
Clc1ccc(C(c2ccc(Cl)cc2)C(Cl)Cl)cc1; 1.03 (inactive)

Next compound, growth AUC to be filled in.
q: Please give the measured growth AUC for this compound: CCCSP(=S)(OCC)Oc1ccc(SC)cc1 (stereo unspecified)
a: 1.01 (inactive)
